Target: Orexin/Hypocretin receptor type 1 (Homo sapiens) (UniProt O43613)
Sequence (O43613 whole entry, looked up): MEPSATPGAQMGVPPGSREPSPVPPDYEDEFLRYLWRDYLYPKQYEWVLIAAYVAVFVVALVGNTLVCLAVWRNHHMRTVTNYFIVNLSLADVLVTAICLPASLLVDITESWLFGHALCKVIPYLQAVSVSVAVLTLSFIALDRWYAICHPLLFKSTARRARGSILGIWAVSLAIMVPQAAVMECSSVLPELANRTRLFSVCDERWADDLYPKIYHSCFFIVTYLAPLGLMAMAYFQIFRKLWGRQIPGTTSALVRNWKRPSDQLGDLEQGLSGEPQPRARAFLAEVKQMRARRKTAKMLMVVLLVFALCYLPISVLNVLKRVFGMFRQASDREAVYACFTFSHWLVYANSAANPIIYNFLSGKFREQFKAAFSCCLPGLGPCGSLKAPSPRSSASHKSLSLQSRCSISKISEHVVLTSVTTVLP
Test: antagonists of human orexin 1 receptor (OX1R) (AID 485270);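 also: 0% = agonist challenge alone and 100% = reference antagonist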
Conditions: OX1R-expressing cells, FRET antagonist read-out; at 6.6 µM; stronger effect = higher value
The whole screen tested about 330,000 compounds, of which about 5,800 (1.8%) were called active. The full list was thinned out, with actives kept by preference.
inhibition values, listed per item
METRIC: inhibition

COMPOUND	TARGET	ASSAY_VALUE
O=C(N/N=C/c1c(O)n(Cc2ccccc2)c(=O)[nH]c1=O)c1ccccc1	Orexin/Hypocretin receptor type 1 (Homo sapiens) (UniProt O43613)	20.1% (inactive)
Cc1nc2ccc(N3CCN(C)CC3)cc2nc1C	Orexin/Hypocretin receptor type 1 (Homo sapiens) (UniProt O43613)	36.4% (inactive)
CCN1CCN(c2ccc([N+](=O)[O-])cc2C#N)CC1	Orexin/Hypocretin receptor type 1 (Homo sapiens) (UniProt O43613)	30.8% (inactive)
CCN(CC)c1ccc([N+](=O)[O-])c2cccnc12	Orexin/Hypocretin receptor type 1 (Homo sapiens) (UniProt O43613)	28.8% (inactive)
CC(=O)Nc1ccc(C(=O)C(Cc2ccccc2)N(C)C)cc1 (stereo unspecified)	Orexin/Hypocretin receptor type 1 (Homo sapiens) (UniProt O43613)	4.57% (inactive)
O=c1[nH]c(CN2CC=C(c3ccccc3)CC2)nc2scc(-c3cccs3)c12	Orexin/Hypocretin receptor type 1 (Homo sapiens) (UniProt O43613)	7.54% (inactive)

---

Target: Orexin/Hypocretin receptor type 1 (Homo sapiens)
Experiment: antagonists of human orexin 1 receptor (OX1R) (AID 485270);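 also: 0% = agonist challenge alone and 100% = reference antagonist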
Details: OX1R-expressing cells, FRET antagonist read-out; at 6.6 µM; stronger effect = higher value
About 5,800 (1.8%) of roughly 330,000 compounds were called active. Only a selection was taken, and actives are over-represented in it overall.
METRIC: inhibition (%)

O=C1N=c2ccccc2=C/C1=C\c1c(O)[nH]c(=S)[nH]c1=O 42.6
Cc1cccc2c(CCN)c[nH]c12 13.2
CCOCCc1c(O)[nH]c(=S)[nH]c1=O -2.14
COc1cccc(-c2nc3ccc(N4CCN(C)CC4)cc3[nH]2)c1 20.4

Where these numbers come from: PubChem BioAssay AID485270
